- Assay target: Cav1.2 (voltage-dependent L-type calcium channel subunit alpha-1C) (Homo sapiens)
- Sequence (Q13936 whole entry): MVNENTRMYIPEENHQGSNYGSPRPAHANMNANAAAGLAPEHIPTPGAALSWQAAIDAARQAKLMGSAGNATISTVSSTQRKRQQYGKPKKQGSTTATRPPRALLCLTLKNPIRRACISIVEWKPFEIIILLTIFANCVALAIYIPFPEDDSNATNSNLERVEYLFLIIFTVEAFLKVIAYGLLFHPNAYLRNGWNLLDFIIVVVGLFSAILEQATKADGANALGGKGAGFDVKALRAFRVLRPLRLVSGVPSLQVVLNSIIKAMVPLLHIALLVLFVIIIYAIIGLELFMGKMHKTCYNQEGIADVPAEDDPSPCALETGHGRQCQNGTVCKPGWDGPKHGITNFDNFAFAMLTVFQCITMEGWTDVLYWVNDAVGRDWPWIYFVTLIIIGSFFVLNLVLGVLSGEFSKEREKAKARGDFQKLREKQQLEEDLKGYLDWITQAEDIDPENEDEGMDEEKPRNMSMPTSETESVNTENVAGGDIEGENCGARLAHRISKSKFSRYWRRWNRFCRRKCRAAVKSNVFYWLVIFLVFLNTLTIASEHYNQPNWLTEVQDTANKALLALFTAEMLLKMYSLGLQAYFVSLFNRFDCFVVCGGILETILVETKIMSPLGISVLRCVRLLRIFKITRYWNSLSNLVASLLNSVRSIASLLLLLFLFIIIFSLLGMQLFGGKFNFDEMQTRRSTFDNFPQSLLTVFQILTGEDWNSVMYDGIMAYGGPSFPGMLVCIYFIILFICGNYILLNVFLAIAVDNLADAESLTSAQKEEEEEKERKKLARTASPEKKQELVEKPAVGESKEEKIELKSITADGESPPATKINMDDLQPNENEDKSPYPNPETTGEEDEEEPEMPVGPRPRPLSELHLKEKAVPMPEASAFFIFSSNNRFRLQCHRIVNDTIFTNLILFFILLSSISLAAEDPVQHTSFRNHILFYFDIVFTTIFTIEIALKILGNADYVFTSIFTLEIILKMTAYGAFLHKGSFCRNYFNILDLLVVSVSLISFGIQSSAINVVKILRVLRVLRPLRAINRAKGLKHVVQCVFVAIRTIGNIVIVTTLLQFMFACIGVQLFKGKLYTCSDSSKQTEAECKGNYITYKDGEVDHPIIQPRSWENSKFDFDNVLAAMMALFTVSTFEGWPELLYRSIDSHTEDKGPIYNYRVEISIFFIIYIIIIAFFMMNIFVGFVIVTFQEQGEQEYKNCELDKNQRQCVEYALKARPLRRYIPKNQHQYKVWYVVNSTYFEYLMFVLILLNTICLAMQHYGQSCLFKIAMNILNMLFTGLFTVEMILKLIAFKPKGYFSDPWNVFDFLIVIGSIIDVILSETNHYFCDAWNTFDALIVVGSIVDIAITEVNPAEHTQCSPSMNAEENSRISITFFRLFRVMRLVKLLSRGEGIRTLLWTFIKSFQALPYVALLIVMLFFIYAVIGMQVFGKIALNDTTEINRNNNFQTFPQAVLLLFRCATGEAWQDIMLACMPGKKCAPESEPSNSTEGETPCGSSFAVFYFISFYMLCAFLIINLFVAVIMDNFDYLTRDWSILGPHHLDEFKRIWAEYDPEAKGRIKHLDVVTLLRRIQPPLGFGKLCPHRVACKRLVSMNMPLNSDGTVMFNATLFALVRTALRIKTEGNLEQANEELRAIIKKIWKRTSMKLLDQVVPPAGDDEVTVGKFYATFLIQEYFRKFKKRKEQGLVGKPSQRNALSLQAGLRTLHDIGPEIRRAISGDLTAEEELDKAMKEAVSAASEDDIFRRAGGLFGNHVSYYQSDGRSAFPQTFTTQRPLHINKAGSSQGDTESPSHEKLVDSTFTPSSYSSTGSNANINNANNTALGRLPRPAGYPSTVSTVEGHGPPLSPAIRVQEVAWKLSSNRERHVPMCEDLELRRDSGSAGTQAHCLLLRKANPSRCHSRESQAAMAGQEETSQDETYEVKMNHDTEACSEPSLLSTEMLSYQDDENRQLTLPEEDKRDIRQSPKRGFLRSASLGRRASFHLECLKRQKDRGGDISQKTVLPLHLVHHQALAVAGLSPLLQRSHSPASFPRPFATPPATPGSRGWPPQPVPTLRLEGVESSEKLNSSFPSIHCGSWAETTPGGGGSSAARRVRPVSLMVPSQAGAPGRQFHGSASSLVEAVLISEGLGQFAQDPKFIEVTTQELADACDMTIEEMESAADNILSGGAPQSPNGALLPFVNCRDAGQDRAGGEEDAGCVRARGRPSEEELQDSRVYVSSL
- Procedure details: Inhibition of human Cav1.2 expressed in HEK293 cells assessed as reduction in Ca2+ uptake at 100 uM measured as first 2 mins sampled at a frequency of one sample every second and the last 12 min at a frequency of one sample every 5 secs by fluo-3AM-based FLIPR assay
- Format: cell-based
- Condition parameters: HEK293 cells that express human Cav1.2
Parameter measured: inhibition at 100 µM (%)
Response body: numeric value in %, unit text excluded.

Recorded result, CCOC(=O)C1=C(C)NC(=S)NC1c1cccc(O)c1 (stereo unspecified) [MONASTROL] , inhibition at 100 µM: 70
